experiment: folding enthalpy; higher = less favourable; fluorescence melt of hairpins on a sequencing array, two-state fit; settings: sodium 0.088 M
Items are presented alongside their recorded folding enthalpy.
Please respond with the number in kcal/mol and leave the unit unwritten.

Example sequences with recorded folding enthalpy:
> print(dat)
                           sequence.data  test.value
1  GTTGGATCGAAAGATAAC (((..(((....))))))       -6.79
2      GATCCAACATTGGATC ((((((....))))))       -43.3
3      GATCCCAGACGGGATC ((((((....))))))       -37.1
4  GACCTTACGAAAGTAGTC (((..(((....))))))         -11
5  GTGTACGAAAGTAGTCAC ((((((....)))..)))       -12.2

Please examine the following record next.
# input folding enthalpy lookup needed for GGTGGCGAAAGCCGTACC ((((((....)))..))) , thanks.
# output -13.3
